Reference source for all entries: the supplement of paper PMC6607015

So I've got a bunch of molecules here, and I need their filipin (z-score) values.
# Test system: HeLa MZ
# Assay comment: filipin (cholesterol) integrated intensity within LBPA endosomes, Z-score; higher = more cholesterol in LBPA endosomes
# Test parameters: compound concentration in added solution (µM; 5 µl added to 20 µl cells): 10; 18 h
Structures can show the parent of a compound that is named as a salt.
Number only, please.

// query So what's the measured filipin (z-score) for this one? C#C[C@]1(O)CC[C@H]2[C@@H]3CCC4=Cc5oncc5C[C@]4(C)[C@H]3CC[C@@]21C
// result -0.556

// query So what's the measured filipin (z-score) for this one? c1ccc2c(c1)CCCC2C1=NCCN1 (centres undefined) [Tetrahydrozoline hydrochloride]
// result 0.0856

// query So what's the measured filipin (z-score) for this one? CC[N+](CC)(CC)CCC(O)(c1ccccc1)C1CCCCC1 (centres undefined) [Tridihexethyl chloride]
// result -0.697

// query So what's the measured filipin (z-score) for this one? CN1CCN(c2c(F)cc3c(=O)c(C(=O)O)cn(CCF)c3c2F)CC1
// result -0.239
